Target: UniProt:P07738
Sequence (P07738 1-259): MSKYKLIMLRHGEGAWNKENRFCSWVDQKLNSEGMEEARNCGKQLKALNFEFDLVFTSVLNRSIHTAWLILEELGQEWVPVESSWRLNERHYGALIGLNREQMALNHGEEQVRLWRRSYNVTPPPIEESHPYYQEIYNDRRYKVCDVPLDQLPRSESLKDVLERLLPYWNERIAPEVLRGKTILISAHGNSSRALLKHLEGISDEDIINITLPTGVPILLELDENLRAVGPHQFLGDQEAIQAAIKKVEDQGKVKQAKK
Assay: 2,3-Diphosphoglycerate Phosphatase Assay (radiochemical, release of inorganic 32P-phosphate from 2,3-DPG)
Type: biochemical
Conditions: 100 μM compound; pH 7.5, 110 μM 32P-labeled 2,3-DPG, 5 μM phosphoglycolate, 37° C., 20 minutes
Where a name gives a salt, the structure may show the parent alone.
assay_readout: inhibition at 100 µM (%)

>  <compound>
COc1cccc2cc(C(=O)O)c(O)cc12 [a, 5-methoxy-3-hydroxy-2-naphthoic acid]

>  <inhibition at 100 µM, %>
79.2

$$$$
>  <compound>
O=C(O)c1cc2cccc(OCCCc3ccccc3)c2cc1O

>  <inhibition at 100 µM, %>
97.1

$$$$
>  <compound>
O=C(O)c1cc2cccc(OCc3ccc(Cl)c(Cl)c3)c2cc1O

>  <inhibition at 100 µM, %>
97.7

$$$$
>  <compound>
O=C(O)c1cc2cccc(OCc3ccc(Cl)c(Cl)c3)c2cc1OCc1ccc(Cl)c(Cl)c1

>  <inhibition at 100 µM, %>
93.6

$$$$
>  <compound>
CC(=O)Oc1cccc2cc(C(=O)O)c(O)cc12 [g, 5-acetoxy-3-hydroxy-2-naphthoic acid]

>  <inhibition at 100 µM, %>
89.6

$$$$
>  <compound>
O=C(O)c1cc2cccc(OCCc3ccccc3)c2cc1O [b, 5-phenetoxy-3-hydroxy-2-naphthoic acid]

>  <inhibition at 100 µM, %>
94.3

$$$$
>  <compound>
O=C(O)c1cc2cccc(OCc3ccc(F)cc3)c2cc1O

>  <inhibition at 100 µM, %>
89

$$$$
>  <compound>
O=C(O)c1cc2cccc(OCCOc3ccccc3)c2cc1O

>  <inhibition at 100 µM, %>
92.5

$$$$
>  <compound>
O=C(O)c1cc2cccc(OCc3cccc(C(F)(F)F)c3)c2cc1O

>  <inhibition at 100 µM, %>
94.3

$$$$
>  <compound>
O=C(O)c1cc2cccc(OCc3ccccc3)c2cc1OC(=O)C(Cl)Cl

>  <inhibition at 100 µM, %>
81.9

$$$$
>  <compound>
O=C(O)c1cc2cccc(OCc3ccc(Cl)cc3Cl)c2cc1O

>  <inhibition at 100 µM, %>
95.6

$$$$
>  <compound>
O=C(O)c1cc2cccc(OCCCc3ccc(Cl)c(Cl)c3)c2cc1O

>  <inhibition at 100 µM, %>
86.9

$$$$
>  <compound>
CCOC(=O)c1cc2cccc(OCCN3CCCC3)c2cc1OCCN1CCCC1 [p, monohydrochloride]

>  <inhibition at 100 µM, %>
99.2

$$$$
>  <compound>
O=C(O)c1cc2cccc(OCc3ccccc3)c2cc1O [h, 5-benzyloxy-3-hydroxy-2-naphthoic acid]

>  <inhibition at 100 µM, %>
74

$$$$
>  <compound>
C=CCCCCCCCCCOc1cccc2cc(C(=O)O)c(O)cc12

>  <inhibition at 100 µM, %>
100

$$$$
>  <compound>
O=C(O)c1cc2cccc(OCc3c(Cl)cccc3Cl)c2cc1O

>  <inhibition at 100 µM, %>
94.2

$$$$
